targetOrSystem: UniProtKB Q14973
Sequence (Q14973 whole entry): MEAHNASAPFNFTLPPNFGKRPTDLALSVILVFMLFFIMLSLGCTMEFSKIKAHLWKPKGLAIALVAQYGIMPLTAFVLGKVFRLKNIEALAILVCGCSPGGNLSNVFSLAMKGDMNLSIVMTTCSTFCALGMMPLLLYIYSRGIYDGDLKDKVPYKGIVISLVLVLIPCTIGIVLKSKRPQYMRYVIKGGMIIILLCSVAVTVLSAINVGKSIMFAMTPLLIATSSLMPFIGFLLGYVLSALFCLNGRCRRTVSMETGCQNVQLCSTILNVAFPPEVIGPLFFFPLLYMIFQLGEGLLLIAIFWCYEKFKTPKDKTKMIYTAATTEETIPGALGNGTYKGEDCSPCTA
assayProcedure: Screening taurocholate uptake assay (96-well, [14C]taurocholate, 10 µM drug)
Structures can show the parent of a compound that is named as a salt.

{"compound": "C[C@]12CCC(=O)C(O)=C1CC[C@@H]1[C@@H]2CC[C@]2(C)C(=O)CC[C@@H]12", "targetOrSystem": "UniProtKB Q14973", "Ranking score": 420.899}
{"compound": "COc1ccc2cc([C@@H](C)C(=O)[O-])ccc2c1.[Na+] [(R) -Naproxen sodium salt]", "targetOrSystem": "UniProtKB Q14973", "Ranking score": 667.638}
{"compound": "C[C@]12Cc3c[nH]nc3C[C@@H]1CC[C@@H]1[C@@H]2CC[C@@]2(C)[C@H]1CC[C@]2(C)O", "targetOrSystem": "UniProtKB Q14973", "Ranking score": 107.121}
{"compound": "Cc1c(Cl)cccc1Nc1ncccc1C(=O)O.NCCCC[C@H](N)C(=O)O [Clonixin Lysinate]", "targetOrSystem": "UniProtKB Q14973", "Ranking score": 317.248}
{"compound": "CNCC[C@@H](Oc1cccc2ccccc12)c1cccs1.Cl [(R)-Duloxetine hydrochloride]", "targetOrSystem": "UniProtKB Q14973", "Ranking score": 610.37}
{"compound": "O=C(NCC(O)CO)c1c(I)c(C(=O)NCC(O)CO)c(I)c(N(CCO)C(=O)CO)c1I (stereo not shown)", "targetOrSystem": "UniProtKB Q14973", "Ranking score": 1044.38}
{"compound": "C[C@]12COC(=O)C[C@@H]1CC[C@@H]1[C@@H]2CC[C@@]2(C)[C@H]1CC[C@]2(C)O", "targetOrSystem": "UniProtKB Q14973", "Ranking score": 649.785}
{"compound": "CCN(CC)CCCC(C)Nc1ccnc2cc(Cl)ccc12 (stereo not shown) [Chloroquine diphosphate]", "targetOrSystem": "UniProtKB Q14973", "Ranking score": 726.833}
{"compound": "NC(=O)C(c1ccccc1)(c1ccccc1)[C@@H]1CCN(CCc2ccc3c(c2)CCO3)C1 [Darifenacin hydrobromide]", "targetOrSystem": "UniProtKB Q14973", "Ranking score": 899.12}
{"compound": "Cc1c(N)c(=O)n(-c2ccccc2)n1C", "targetOrSystem": "UniProtKB Q14973", "Ranking score": 788.348}
{"compound": "CN(C)CCCN1c2ccccc2Sc2ccccc21 [Promazine hydrochloride]", "targetOrSystem": "UniProtKB Q14973", "Ranking score": 494.272}
{"compound": "O=C(NCCNCC(O)COc1ccc(O)cc1)N1CCOCC1 (stereo not shown) [Xamoterol hemifumarate]", "targetOrSystem": "UniProtKB Q14973", "Ranking score": 564.879}
{"compound": "O=P1(N(CCCl)CCCl)NCCCO1 (stereo not shown) [Cyclophosphamide]", "targetOrSystem": "UniProtKB Q14973", "Ranking score": 990.921}
